# Assay info: Metabolic stability test: liver microsomal stability assay
# Type: in vitro ADME, mouse
# Test parameters: mouse liver microsomes 0.5 mg protein/mL, compound 1 µM, absence of NADPH
Starred links: 1 amine or outer side, 2 acyl side, 3 side chain; linkers in the order of their positions; H or OH if unused. Positions of bridges follow the written chain, without caps; N, C: chain ends. Non-standard residues stand in square brackets, D forms with d. Residues, ends and D or L forms follow the SMILES beside them. *: point of attachment. NMedβ3hAla = C[C@H](CC(=O)[*:2])N(C)[*:1]; NMeF = CN[C@@H](Cc1ccccc1)C(=O)O; NMeGABA = CN(CCCC(=O)[*:2])[*:1]; NMeI = CC[C@H](C)[C@H](NC)C(=O)O; NMeT = CN[C@H](C(=O)O)[C@@H](C)O; hPhe = N[C@@H](CCc1ccccc1)C(=O)O; NMeL = CN[C@@H](CC(C)C)C(=O)O; NMeV = CN[C@H](C(=O)O)C(C)C; NMeAbu = CC[C@H](NC)C(=O)O; NMeA = CN[C@@H](C)C(=O)O; Piperidide = C1CCN(*)CC1; Sar = CNCC(=O)O; tBu = CC(C)(C)*
Readout name: Mouse Hepatic Microsome CLh,int NADPH(-) (µL/min/mg Protein)
Could you give me the number in µL/min/mg Protein? Just the number is fine.

Just so you know, measured Mouse Hepatic Microsome CLh,int NADPH(-) for CC[C@H](C)[C@@H]1NC(=O)[C@H](C)N(C)C(=O)C[C@@H](C(=O)N2CCCCC2)NC(=O)[C@H](CC)N(C)C(=O)[C@H](COC(C)(C)C)NC(=O)[C@H](CC(C)C)N(C)C(=O)[C@H](C)N(C)C(=O)[C@H](CC(C)C)N(C)C(=O)[C@H](Cc2ccccc2)N(C)C(=O)CN(C)C(=O)[C@H]([C@@H](C)O)NC(=O)[C@H](CC(C)C)N(C)C(=O)[C@H](C(C)C)N(C)C(=O)[C@H](Cc2ccccc2)N(C)C1=O [pd004] ([NMeA]I[NMeF][NMeV][NMeL]T[Sar][NMeF][NMeL][NMeA][NMeL]S(tBu)[NMeAbu]D-Piperidide; lactam N-14) came out at 27.4

Just so you know, measured Mouse Hepatic Microsome CLh,int NADPH(-) for CC(C)C[C@H]1C(=O)N2CCC[C@H]2C(=O)N(C)[C@@H](Cc2ccccc2)C(=O)N[C@@H](C(C)C)C(=O)N(C)[C@@H](C)C(=O)N(C)[C@@H](C(C)C)C(=O)N[C@H](C(=O)N2CCCCC2)CC(=O)N[C@H](C(C)C)C(=O)N(C)[C@@H]([C@@H](C)O)C(=O)N(C)[C@@H](CC(C)C)C(=O)N(C)[C@@H](C(C)C)C(=O)N(C)[C@@H](CC(C)C)C(=O)N[C@@H](CCc2ccccc2)C(=O)N(C)CC(=O)N1C [pd047] ([dV][NMeT][NMeL][NMeV][NMeL][hPhe][Sar][NMeL]P[NMeF]V[NMeA][NMeV]D-Piperidide; lactam N-14) came out at 30.0

Just so you know, measured Mouse Hepatic Microsome CLh,int NADPH(-) for CC[C@H](C)[C@@H]1NC(=O)[C@H](CC(C)C)N(C)C(=O)CCCN(C)C(=O)C[C@@H](C)N(C)C(=O)[C@H](CC(C)C)NC(=O)[C@H](CC)N(C)C(=O)[C@H](C(C)C)N(C)C(=O)[C@H](C)N(C)C(=O)[C@H](CC(C)C)N(C)C(=O)[C@H](COC(C)(C)C)NC(=O)[C@H](Cc2ccccc2)N(C)C(=O)[C@H](Cc2ccccc2)N(C)C(=O)CN(C)C1=O [pd143] (cyclo(I[Sar][NMeF][NMeF]S(tBu)[NMeL][NMeA][NMeV][NMeAbu]L[NMedβ3hAla][NMeGABA][NMeL])) came out at 21.0

Just so you know, measured Mouse Hepatic Microsome CLh,int NADPH(-) for CC[C@H](C)[C@H]1C(=O)N[C@@H](Cc2ccccc2)C(=O)N2CCC[C@H]2C(=O)N(C)[C@@H](CC(C)C)C(=O)N[C@@H](COC(C)(C)C)C(=O)N(C)[C@@H](Cc2ccccc2)C(=O)N[C@@H]([C@@H](C)O)C(=O)N(C)[C@@H](CC)C(=O)N2CCC[C@H]2C(=O)N(C)[C@@H](CC(C)C)C(=O)N[C@H](C(=O)N2CCCCC2)CC(=O)N(C)CCCC(=O)N(C)[C@@H](CC(C)C)C(=O)N1C [pd118] ([NMeGABA][NMeL][NMeI]FP[NMeL]S(tBu)[NMeF]T[NMeAbu]P[NMeL]D-Piperidide; lactam N-13) came out at 19.8
